target: mGlyT-1b (Mus musculus, UniProt P28571); construct: host or cells: Flp-in-CHO; assay: Glycine uptake inhibition assay (mGlyT-1b), [3H]-glycine uptake in Flp-in-CHO cells; type: cell-based; conditions: Flp-in-CHO cells stably transfected with mGlyT1b cDNA, 20 min at 22° C. preincubation
Sequence (P28571 1-651 isoform P28571-2): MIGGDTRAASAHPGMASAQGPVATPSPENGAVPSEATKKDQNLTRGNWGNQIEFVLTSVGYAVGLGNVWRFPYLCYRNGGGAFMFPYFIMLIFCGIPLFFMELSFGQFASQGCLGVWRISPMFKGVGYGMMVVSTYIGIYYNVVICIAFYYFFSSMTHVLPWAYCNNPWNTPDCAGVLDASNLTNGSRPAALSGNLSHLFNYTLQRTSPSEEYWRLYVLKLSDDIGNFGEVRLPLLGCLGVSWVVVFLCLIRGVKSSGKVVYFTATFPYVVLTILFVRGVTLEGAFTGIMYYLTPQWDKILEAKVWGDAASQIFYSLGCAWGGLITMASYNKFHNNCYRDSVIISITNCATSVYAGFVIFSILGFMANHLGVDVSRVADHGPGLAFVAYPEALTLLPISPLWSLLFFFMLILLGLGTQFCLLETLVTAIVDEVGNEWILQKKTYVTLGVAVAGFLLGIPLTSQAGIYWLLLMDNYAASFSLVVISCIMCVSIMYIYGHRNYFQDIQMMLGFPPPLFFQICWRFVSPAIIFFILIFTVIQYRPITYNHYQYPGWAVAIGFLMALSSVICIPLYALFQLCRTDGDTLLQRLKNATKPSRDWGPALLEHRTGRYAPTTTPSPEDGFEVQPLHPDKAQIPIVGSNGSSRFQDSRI
metric-name: IC50 (µM)

- compound: "COc1cc(F)cc(SC)c1C(=O)NC(c1ccccc1)C1(N2CCCC2)CCC1 (stereo not shown)"
  u: "µM"
  value: 0.0122
- compound: "CSc1cc(C(F)(F)F)ccc1C(=O)NC(c1ccccc1)C1(N2CCCC2)CCC1 (stereo not shown) [Example 16]"
  u: "µM"
  value: 0.0134
- compound: "O=C(NC(c1ccccc1)C1(N2CCCC2)CCC1)c1ccc(Cl)cc1C(F)(F)F (stereo not shown)"
  u: "µM"
  value: 0.0275
- compound: "O=C(NC(c1ccccc1)C1(N2CCCC2)CCC1)c1ccc(Cl)cc1Cl (stereo not shown)"
  u: "µM"
  value: 0.0669
